Target: DNA dC->dU-editing enzyme APOBEC-3F (Homo sapiens) (UniProt Q8IUX4)
Sequence (Q8IUX4 whole entry, looked up): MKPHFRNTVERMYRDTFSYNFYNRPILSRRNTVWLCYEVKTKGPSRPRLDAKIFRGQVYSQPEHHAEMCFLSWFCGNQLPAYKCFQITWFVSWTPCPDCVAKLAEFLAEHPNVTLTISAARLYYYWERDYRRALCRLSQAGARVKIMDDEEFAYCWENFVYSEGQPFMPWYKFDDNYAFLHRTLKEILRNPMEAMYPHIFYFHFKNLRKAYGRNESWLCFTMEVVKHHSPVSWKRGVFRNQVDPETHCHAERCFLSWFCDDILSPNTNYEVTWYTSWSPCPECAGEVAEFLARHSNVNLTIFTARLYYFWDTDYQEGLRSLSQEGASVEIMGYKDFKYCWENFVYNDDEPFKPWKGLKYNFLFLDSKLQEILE
Assay: qHTS for inhibitors of Vif-A3F interactions: Cherry picks counterscreen; further: nearly all actives have a fitted effect of over 65% in size
Settings: HeLa A3F-eYFP/Vif cells, eYFP fluorescence, 24 h; series mostly up to 46.1 µM
Among all 2,100 compounds or so, about 1,100 (52%) were called active. Another 29% or so got no clear call; they are omitted. The call rests on the fitted dose curve; in most records, active means well fitted inhibition curve with a large enough effect; inconclusive means small, poorly fitted or top-dose-only effect; inactive means no such curve, though single readings can be large or run the other way. So high a share suggests a set chosen from earlier hits. This is one part of the list.
Respond with a class label; see 1 (active), -1 (inactive)

Solved cases below.
| Compound | Qualitative Label |
| --- | --- |
| CC1=Nc2ccc(C)cc2/C1=C/c1c(N)n2oc(C)cc2nc1=O | 1 |
| CN(C)c1ccc(/C=C(/C#N)C(=O)Nc2nc3c(s2)CCN(Cc2ccccc2)C3)cc1 | 1 |
| COc1cc(/C=C(/C#N)c2nc3ccccc3[nH]2)ccc1OC(=O)c1ccco1 | -1 |

Consider the record given below.
Field: outcome | Entry: COc1ccccc1N1N=C(c2ccc([N+](=O)[O-])cc2)CC1c1ccccc1 (centres undefined) 1

----------
Target: DNA dC->dU-editing enzyme APOBEC-3F (Homo sapiens) (UniProt Q8IUX4)
Test: qHTS for inhibitors of Vif-A3F interactions: Cherry picks counterscreen; further: nearly all actives have a fitted effect of over 65% in size; further: potency means the concentration at half of the fitted maximal effect
Conditions: HeLa A3F-eYFP/Vif cells, eYFP fluorescence, 24 h; series mostly up to 46.1 µM
The whole screen tested about 2,100 compounds, of which about 1,100 (52%) were called active. Roughly 29% stayed inconclusive and do not appear here. The set was probably picked from earlier hits. The list shows a part of the results.
Readout Label: Potency

| Compound | Potency |
| --- | --- |
| CCCCOc1ccc2c(c1)/C(=C(\C(Cl)=C(Cl)Cl)[N+](=O)[O-])N2 | inactive |
| COC(=O)c1ccc(NC(=O)CC2Nc3cc(C)c(C)cc3NC2=O)cc1 (stereo not drawn) | 9.2 µM (active) |
| C=CCn1c(O)c(N=NC(=O)CNC(=O)c2ccco2)c2ccccc21 | 11.2 µM (active) |
| CC[n+]1c(C=C2C=C(C)OC(C)=C2)sc2ccccc21 | 4.61 µM (active) |

For the compound `O=C(Nc1nc(NC(=O)c2ccco2)n(-c2ccccc2)n1)c1ccccc1` , what Potency is on record? inactive

For the compound `COCCN1C(=O)/C(=C/c2ccc(N3CCCC3)cc2C)SC1=S` , what Potency is on record? 2.91 µM (active)

For the compound CC(NC(=S)Nc1cccc(C(F)(F)F)c1)C(C)(C)C (stereo not drawn) , what Potency is on record? inactive

For the compound `CN(C)c1ccc(/C=C/c2ccnc3ccc(N)cc23)cc1` , what Potency is on record? 23.1 µM (active)

For the compound `CC(=O)/C(=C\N(C)C)Sc1ccc(Cl)cc1` , what Potency is on record? inactive

For the compound `CCOC(=O)C(=Cc1ccc(-n2cncn2)cc1)C(=O)OCC` , what Potency is on record? 7.9 µM (active)

For the compound `Cc1sc2ncnc(SCC(=O)NC(C)(C)C)c2c1C` , what Potency is on record? inactive

For the compound `CNC(=S)N/N=C/c1ccc(N2CCOCC2)s1` , what Potency is on record? inactive

For the compound `CCOC(=O)c1ccc(NC(=S)NC(=O)C2CCCC2)cc1` , what Potency is on record? inactive

For the compound `O=C(NC(=S)N1CCN(C2CCCCC2)CC1)c1ccccc1` , what Potency is on record? inactive

For the compound COc1ccc(OC)c(C2CC(=O)c3c([nH]c(C(=O)OCC4CCCO4)c3C)C2)c1 (stereo not drawn) , what Potency is on record? 12.5 µM (active)

----------
Target: DNA dC->dU-editing enzyme APOBEC-3F (Homo sapiens)
Assay: qHTS for inhibitors of Vif-A3F interactions: Cherry picks counterscreen; further: nearly all actives have a fitted effect of over 65% in size; further: potency means the concentration at half of the fitted maximal effect
Settings: HeLa A3F-eYFP/Vif cells, eYFP fluorescence, 24 h; series mostly up to 46.1 µM
Hit rate of the full screen: of about 2,100 compounds, about 1,100 (52%) were called active. Inconclusive results (about 29%) are left out. The set was probably picked from earlier hits. This is one part of the list.
Potency by entry:

| Compound | Readout Label | Endpoint Value |
| --- | --- | --- |
| CCSC1=N/C(=C\C=C2/Oc3ccccc3N2CC)C(=O)S1 | Potency | 14.6 µM (active) |

For the compound CC(=O)Nc1cccc(-c2ccnc3c2CC(C)(C(=O)NCc2cccs2)O3)c1 (stereo not drawn) , what Potency is on record? 4.44 µM (active)

----------
Target: DNA dC->dU-editing enzyme APOBEC-3F (Homo sapiens) (UniProt Q8IUX4)
Experiment: qHTS for inhibitors of Vif-A3F interactions: Cherry picks counterscreen; further: nearly all actives have a fitted effect of over 65% in size
Conditions: HeLa A3F-eYFP/Vif cells, eYFP fluorescence, 24 h; series mostly up to 46.1 µM
The campaign covered roughly 2,100 compounds. About 1,100 (52%) were called active. About 29% were inconclusive and are not listed. The call rests on the fitted dose curve; in most records, active means well fitted inhibition curve with a large enough effect; inconclusive means small, poorly fitted or top-dose-only effect; inactive means no such curve, though single readings can be large or run the other way. So high a share suggests a set chosen from earlier hits. This is one part of the list.
Respond with a class label; see Y (active), N (inactive)

| Compound | Qualitative Label |
| --- | --- |
| N#CCC(=O)N/N=C/c1ccc(N2N=C(c3ccccc3)CC2c2ccccc2)cc1 (stereo not drawn) | Y |
| COc1ccc(C(=O)NC(=S)NCc2cccnc2)cc1Cl | N |
| COc1ccc(OC)c(NC(=O)Cn2c(=O)n(-c3ccc(Cl)cc3)c(=O)c3c(C)c(C)sc32)c1 | Y |
| Cc1ccc2[nH]c(C(=O)NN=C3CCCCC3)c(-c3ccccc3)c2c1 | N |
| COc1ccc2nccc(/C=C/c3ccc(N(C)C)cc3)c2c1 | Y |

Field: outcome | Entry: `O=C(O)c1ccc(NS(=O)(=O)c2cccc(C(=O)Nc3ccccc3[N+](=O)[O-])c2)cc1` N

Field: outcome | Entry: `C=CCN1C=CC(=C/C=C(/C#N)C(=O)OCC)C=C1` Y

Field: outcome | Entry: `O=C(/C=C/c1ccc(Cl)cc1)c1ccc([N+](=O)[O-])o1` Y

Field: outcome | Entry: `CCOc1ncccc1C(=O)NCc1ccc(OC)cc1` Y

Field: outcome | Entry: `O=C(/C=C/c1ccncc1)c1cc(Cl)ccc1O` N

----------
Target: DNA dC->dU-editing enzyme APOBEC-3F (Homo sapiens)
Test: qHTS for inhibitors of Vif-A3F interactions: Cherry picks counterscreen; further: nearly all actives have a fitted effect of over 65% in size; further: potency means the concentration at half of the fitted maximal effect
Conditions: HeLa A3F-eYFP/Vif cells, eYFP fluorescence, 24 h; series mostly up to 46.1 µM
Out of some 2,100 compounds screened, about 1,100 (52%) were called active. Inconclusive results (about 29%) are left out. The set was probably picked from earlier hits. The list shows a part of the results.
Potency by entry:

For orientation, consider the following solved cases.
| Compound Smiles | Potency |
| --- | --- |
| OCC[n+]1ccc(/C=C/c2c[nH]c3ccccc23)cc1 | 5.8 µM (active) |
| C[n+]1ccc(/C=C/c2c[nH]c3ccccc23)cc1 | 6.51 µM (active) |
| CCN(CC)C(=O)Cn1c(C)c(/C=C/c2cc[n+](C)cc2)c2ccccc21 | 7.9 µM (active) |

For the compound `CC[n+]1ccc(/C=C/c2c[nH]c3ccccc23)cc1` , what Potency is on record? 1.84 µM (active)

----------
Target: DNA dC->dU-editing enzyme APOBEC-3F (Homo sapiens)
Assay: qHTS for inhibitors of Vif-A3F interactions: Cherry picks counterscreen; further: nearly all actives have a fitted effect of over 65% in size
Conditions: HeLa A3F-eYFP/Vif cells, eYFP fluorescence, 24 h; series mostly up to 46.1 µM
Out of some 2,100 compounds screened, about 1,100 (52%) were called active. Another 29% or so got no clear call; they are omitted. Calls come from the whole dose curve; as a rule, active = well fitted inhibition curve with a large enough effect; inconclusive = small, poorly fitted or top-dose-only effect; inactive = no such curve, though single readings can be large or run the other way. The set was probably picked from earlier hits. Some of the results follow.
Respond with a class label; see T (active), F (inactive)

Solved cases below.
| Compound Smiles | Experimental System | Qualitative Label |
| --- | --- | --- |
| C=CCN1C(=O)c2ccc(C(=O)N(CC(C)C)c3c(N)n(CCCC)c(=O)[nH]c3=O)cc2C1=O | DNA dC->dU-editing enzyme APOBEC-3F (Homo sapiens) | F |
| O=C(NCc1cccs1)C1CCN(c2ccc(S(=O)(=O)N3CCOCC3)cc2Cl)CC1 | DNA dC->dU-editing enzyme APOBEC-3F (Homo sapiens) | T |
| O=[N+]([O-])c1ccc(N/N=C/c2sc(N3CCOCC3)nc2-c2ccccc2)c(S(=O)(=O)Nc2ccccc2Cl)c1 | DNA dC->dU-editing enzyme APOBEC-3F (Homo sapiens) | T |

Field: outcome | Entry: `COc1ccccc1NS(=O)(=O)c1cc([N+](=O)[O-])ccc1N/N=C/c1sc(N2CCOCC2)nc1-c1ccccc1` T

----------
Target: DNA dC->dU-editing enzyme APOBEC-3F (Homo sapiens) (UniProt Q8IUX4)
Assay: qHTS for inhibitors of Vif-A3F interactions: Cherry picks counterscreen; further: nearly all actives have a fitted effect of over 65% in size
Conditions: HeLa A3F-eYFP/Vif cells, eYFP fluorescence, 24 h; series mostly up to 46.1 µM
The whole screen tested about 2,100 compounds, of which about 1,100 (52%) were called active. Another 29% or so got no clear call; they are omitted. The call rests on the fitted dose curve; in most records, active means well fitted inhibition curve with a large enough effect; inconclusive means small, poorly fitted or top-dose-only effect; inactive means no such curve, though single readings can be large or run the other way. The set was probably picked from earlier hits. This is one part of the list.
Respond with a class label; see active, inactive

Field: outcome | Entry: `CCc1ccc(C(=O)/C=C/c2ccc([N+](=O)[O-])o2)cc1` active

Field: outcome | Entry: ClCC1NCC(c2ccccc2Cl)c2c1[nH]c1ccccc21 (stereo not drawn) inactive

Field: outcome | Entry: `O=[N+]([O-])c1cc(O)c2ncccc2c1` inactive

Field: outcome | Entry: `CC(C)Cn1c(N)c(C(=O)COC(=O)c2ccc([N+](=O)[O-])o2)c(=O)n(C)c1=O` inactive

Field: outcome | Entry: `Cn1cc(/C=C2\SC(=S)N(NC(=O)c3cccc(Cl)c3)C2=O)c2ccccc21` active

Field: outcome | Entry: `COc1cc(NC(=O)C2=C(N3CCOCC3)/C(=C\c3ccc(N(C)C)cc3)CCC2)cc(OC)c1OC` active

Field: outcome | Entry: `O=C(Nc1ccccc1-c1nc2ccccc2[nH]1)c1ccc(N2C(=O)CCC2=O)cc1` active

Field: outcome | Entry: `CN(C)c1ccc(/C=C2\Cc3ccccc3C2=O)cc1` active

Field: outcome | Entry: `CCOc1ccc(S(=O)(=O)N(CC(=O)N/N=C/c2ccc(-c3ccc([N+](=O)[O-])cc3)o2)c2ccccc2)cc1` active

Field: outcome | Entry: `CCn1c(SCC(=O)c2c[nH]c3ccccc23)nnc1-c1cccs1` active
